- target_desc: T1, Human CXCR2 (Homo sapiens, UniProt P25025)
- T1 sequence (P25025 1-360): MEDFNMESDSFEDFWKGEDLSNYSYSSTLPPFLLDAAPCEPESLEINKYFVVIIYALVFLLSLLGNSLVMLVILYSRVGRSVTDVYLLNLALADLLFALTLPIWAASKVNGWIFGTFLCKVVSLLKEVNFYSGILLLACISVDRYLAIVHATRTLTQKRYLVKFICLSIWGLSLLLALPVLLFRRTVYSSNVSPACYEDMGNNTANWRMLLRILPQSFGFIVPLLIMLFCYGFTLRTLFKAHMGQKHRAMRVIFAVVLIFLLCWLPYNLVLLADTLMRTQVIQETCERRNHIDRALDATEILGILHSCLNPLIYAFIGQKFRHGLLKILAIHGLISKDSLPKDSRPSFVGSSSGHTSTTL
- measurement_notes: cELISA of hybridoma supernatants on cells transfected with human CXCR2
- Format: binding
- Parameters: host or cells: Expi293F cells, vector pTT5
- cond: hybridoma supernatant; fluorescence units relative to positive control (100%)
- Protocol: To generate hybridomas which produced monoclonal antibodies to human CXCR2, splenocytes and/or lymph node cells from animals with the highest anti-CXCR2 titres were isolated and fused to mouse myeloma cells (ATCC, CRL-1580). Cells were plated at approximately 1×10^5 cells/mL in flat bottom microtiter plates, followed by a two week incubation in selective medium (10% FCS and 1×HAT (Sigma)). […] Bound antibodies were detected using a goat anti-rat IgG-HRP (Southern Biotech, #3030-05) secondary antibody. […]
metric_name: Human CXCR2 % Positive (%)

BKO-8H10: VH SEQ ID NO: 43, VL SEQ ID NO: 44 (antibody, V domains shown, BKO_8H10_VH; BKO_8H10_VL) VH: QVQLVQSGAEVKKPGASVKVSCKASGYTFTGYYIHWVRQAPGQGLEWMGRIKPDSGGTNYAQKFQGRVTMTRDTSITTAYMELSRLRSDDTAVYYCARGGSGWDYWGQGTLVTVSS VL: QSALTQPPSASGSPGQSVTISFTGTSRDVGDYNYVSWYQQHPGKAPKLMIYEVNKRPSGVPDRFSGSKSGNTASLTVSGLQAEDEADYYCSSYAGSNTYVFGTGTKVTVL : 81
BKO-3F4: VH SEQ ID NO: 15, VL SEQ ID NO: 16 (antibody, V domains shown, BKO_3F4_VH; BKO_3F4_L11_A11_VL) VH: EVQLLESGGGLVQPGGSLRLSCAASGLTFSSYAMSWVRQAPGKGLEWVSAISGSGGKIYYADSVKGRFTISRDNSKNTLYLQMNSLRAEDTAVYYCAIQVGYWGQGTLVTVSS VL: QSALTQPPSASGSPGQSVTMSCTGTSSDVGGYNYVTWYQQHPGKAPKLMIYEVSKRPSGVPARFSGSKSGNTASLTVSGLQAEDEADYYCSSYAGPNNFGVFGGGTKLTVL : 86

Attribution: patent US12018084B2
